The values you see were collected from PubChem BioAssay (Tox21).

- system_under_test: Voltage-gated inwardly rectifying potassium channel KCNH2 (Homo sapiens) (UniProt Q12809)
- Sequence (Q12809 whole entry, looked up): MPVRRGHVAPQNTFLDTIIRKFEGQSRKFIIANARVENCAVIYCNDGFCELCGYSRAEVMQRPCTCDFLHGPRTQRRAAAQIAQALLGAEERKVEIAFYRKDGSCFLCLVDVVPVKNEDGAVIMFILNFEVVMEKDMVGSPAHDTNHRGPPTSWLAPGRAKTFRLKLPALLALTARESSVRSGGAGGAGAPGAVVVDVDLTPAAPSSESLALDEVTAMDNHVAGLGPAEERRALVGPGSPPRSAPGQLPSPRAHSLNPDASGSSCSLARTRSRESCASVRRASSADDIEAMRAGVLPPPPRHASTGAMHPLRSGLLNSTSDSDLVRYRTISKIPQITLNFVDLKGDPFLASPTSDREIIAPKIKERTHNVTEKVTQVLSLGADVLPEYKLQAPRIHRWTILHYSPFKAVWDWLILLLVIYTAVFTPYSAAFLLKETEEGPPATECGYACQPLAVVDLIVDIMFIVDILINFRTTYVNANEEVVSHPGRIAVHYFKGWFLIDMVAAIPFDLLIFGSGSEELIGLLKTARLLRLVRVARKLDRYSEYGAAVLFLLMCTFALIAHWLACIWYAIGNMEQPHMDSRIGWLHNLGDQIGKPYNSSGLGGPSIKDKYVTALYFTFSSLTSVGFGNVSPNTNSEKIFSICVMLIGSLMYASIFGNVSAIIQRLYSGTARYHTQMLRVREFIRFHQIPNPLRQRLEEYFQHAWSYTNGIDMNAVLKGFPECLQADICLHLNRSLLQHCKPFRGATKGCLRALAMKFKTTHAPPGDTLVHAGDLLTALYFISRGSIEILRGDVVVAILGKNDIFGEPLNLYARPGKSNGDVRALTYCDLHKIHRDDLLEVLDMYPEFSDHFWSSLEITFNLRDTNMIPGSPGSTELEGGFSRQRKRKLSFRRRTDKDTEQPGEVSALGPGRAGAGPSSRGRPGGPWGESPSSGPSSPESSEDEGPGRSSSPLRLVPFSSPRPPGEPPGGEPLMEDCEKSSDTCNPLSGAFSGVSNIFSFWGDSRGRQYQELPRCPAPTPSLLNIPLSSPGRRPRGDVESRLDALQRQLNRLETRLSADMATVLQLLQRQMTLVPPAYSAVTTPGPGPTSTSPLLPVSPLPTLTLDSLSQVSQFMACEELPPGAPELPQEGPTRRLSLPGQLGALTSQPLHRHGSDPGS
- protocol_text: Human Ether-a-go-go-Related Gene (hERG) channel small molecule antagonists: fluorescence cell-based qHTS assay (AID 1671200);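 also: hERG-expressing U2OS cells given a thallium stimulus after FluxOR II dye loading; % is scaled to controls: 0 for no effect and ±100 for the full control effect; nearly all actives have a fitted effect of over 50% in size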
- settings: hERG-U2OS cells, FluxOR thallium flux fluorescence; series mostly up to 76.8 µM
Results filed as inconclusive are left out. Calls of active or inactive are those of the source. Calls follow the shape of the dose curve; as a rule, active = well fitted inhibition curve with a large enough effect in the repeat runs; inconclusive = weak or mixed curves; inactive = flat fitted curve, though single readings scatter.
reported_endpoint: activity change, negative = inhibition

CCCCCCCC/C=C\CCCCCCCC(=O)OCCCC    -0.621% [at 15.8 µM] (inactive)
Cc1ccc(S(=O)(=O)O)c(C)c1    inactive
COc1ccc2nc(SCc3ncc(C)c(OC)c3C)[nH]c2c1    inactive
Cc1cc2cc3c(C)cc(=O)oc3c(C)c2o1    inactive
CCOC(=O)[C@H](CCc1ccccc1)N[C@@H](C)C(=O)N1C(=O)N(C)C[C@H]1C(=O)O    inactive
O=C1c2cccc3c2[C@H](CCC3)CN1[C@@H]1CN2CCC1CC2    inactive
